Tested on: MDA-MB-231 (breast)
Experiment: In vitro cytotoxic activity (MTT) assay, MDA-MB-231
Assay type: cell-based
Conditions: Homo sapiens; MDA-MB-231 (breast) cells, exposed for 96 hours; read-out: Cytotoxicity activity IC50 (50% inhibition of cell proliferation)
measured attribute: pIC50
Reminder that pIC50 means the negative base-10 logarithm of the concentration expressed in mol/L.

What the record says about O=C(O)c1cnn2c1nc(Nc1cccc(Cl)c1)c1ccncc12 : pIC50 is 5.36
